Values compiled from paper PMC10622836.

Experimental endpoint: Kd (nM)
// units = nM; emit number, no label

For HDAC6 (histone deacetylase 6) (Danio rerio, UniProt F8W4B7), give the measured Kd of the entry O=C(O)CCCC[C@@H](S)CCS [(R)-dihydrolipoic acid] 350
